Items are presented alongside their recorded log10(TGI).
System: SK-MEL-5 melanoma
assay_protocol: NCI tumour cell line growth inhibition, 48 h
Response schema: value (number) is log10 of TGI in units of µM.

| compound | measured_parameter | observed_result |
| --- | --- | --- |
| Cc1ccc(Cc2cc(N3CCN(c4cccc(Cl)c4)CC3)nnc2C)cc1 | log10(TGI) | 1.62 |
| CC[C@@]1(O)C[C@H](OC2CC(N(C)C)C(O)C(C)O2)c2c(cc3c(c2O)C(=O)c2c(O)ccc(O)c2C3=O)[C@H]1C(=O)OC (stereo not given in full) | log10(TGI) | -0.34 |
| COc1ccc2c(c1)[n+]([O-])c(-c1cccc(Cl)c1)c(N)[n+]2[O-] | log10(TGI) | 1.60 |
| Cc1ccc(-c2nc3nc(-c4ccc(F)cc4)nc(N4CCNCC4)c3o2)cc1 | log10(TGI) | 1.46 |
| CCC12CCCN(Cc3ccccc3)C1c1c(n(C)c3ccccc13)C(CO)C2 (stereo not given) | log10(TGI) | 1.89 |
| COc1cc(C2c3cc4c(cc3OC(NNC(N)=O)C2C)OCO4)cc(OC)c1OC (stereo not given) | log10(TGI) | 1.36 |
| CCOP(=O)(CCCC(O)CNc1nc(N)nc(Cl)c1N=Nc1ccc(Cl)cc1)OCC (stereo not given) | log10(TGI) | 1.19 |
| COc1ccc2nc3c([N+](=O)[O-])ccc(NCCN(C)C)c3c(N)c2c1 | log10(TGI) | 0.54 |
| COC(=O)c1ccc2nc(-c3cc4ccccc4n3C)n(CCCCOc3cc4c(cc3OC)C(=O)N3CCC[C@H]3C=N4)c2c1 | log10(TGI) | 0.39 |
| COc1cc2c3c(n(CCCN4CCNCC4)c(=O)c2cc1OC)-c1cc2c(cc1C3=O)OCO2 | log10(TGI) | 1.02 |

Entry O=C(c1ccccc1)C(Cl)C(Cl)c1ccccc1 (stereo not given) — recorded log10(TGI) = 1.03

Entry Cc1nnc(N)nc1/C=C\c1ccc(Cl)cc1Cl — recorded log10(TGI) = 1.91

Entry NC(=O)c1cccc2c(N[C@H](CN3CCC3)c3ccc(Cl)c(C(F)(F)F)c3)ncnc12 — recorded log10(TGI) = 0.51

* * *

Items are presented alongside their recorded GI50.
System: A549 NSCLC
assay_protocol: NCI tumour cell line growth inhibition, 48 h

| compound | target_or_system | GI50 |
| --- | --- | --- |
| CN1CCN(Cc2ccc(NC(=O)c3cncc(C#Cc4c(N)ncc5ccc(C#N)cc45)c3)cc2C(F)(F)F)CC1 | A549 NSCLC | 867 nM |
| CNC(=O)c1nn(C)c2c1C(C)(C)Cc1cnc(Nc3cccc(N4CCN(C)CC4)c3)nc1-2 | A549 NSCLC | 340 nM |
| C/C(=N\NC(=S)N1CCN(c2ccccn2)CC1)c1ccccn1 | A549 NSCLC | 46.4 nM |
| COc1cc2c3c(n(CCCN4CCNCC4)c(=O)c2cc1OC)-c1cc2c(cc1C3=O)OCO2 | A549 NSCLC | 39.3 nM |
| O=C1C(=c2ccc(=C3C(=O)c4ccc([N+](=O)[O-])cc4[N+]3=O)cc2)N([O-])c2cc([N+](=O)[O-])ccc21 | A549 NSCLC | > 100000 nM |
| COc1ccc(/C=C/C(=O)c2c(O)ccc3c(C)c(C(=O)O)oc23)cc1 | A549 NSCLC | 91900 nM |
| CC1(C)CC(=O)C=C(/C=C/Sc2c(Cl)c(Cl)nc(Cl)c2Cl)C1 | A549 NSCLC | 15400 nM |
| O=C(/C=C/C12c3ccccc3C(c3ccccc31)C1C(=O)N(c3ccc(Cl)cc3)C(=O)C12)c1ccccn1 (centres undefined) | A549 NSCLC | 288 nM |

Let us move to another entry and its GI50.
Entry CN(C)C1CCN(Cc2ccc(NC(=O)c3cncc(C#Cc4cnc(N)c5ncccc45)c3)cc2C(F)(F)F)CC1 — recorded GI50 = 8250 nM

* * *

Test system: CCRF-CEM leukemia
assay_protocol: NCI tumour cell line growth inhibition, 48 h
measured_parameter: TGI (µM)
Could you give me the number in µM? Just the number is fine.

Look over these answered cases.
| molecule | target_or_system | unit_annotation | TGI |
| --- | --- | --- | --- |
| Nc1nc(N)c(CCCCc2ccccc2)c(C=O)n1 | CCRF-CEM leukemia | µM | 40.1 |
| Cc1ccc([P+](Cc2ccccc2)(c2ccccc2)c2ccccc2)cc1 | CCRF-CEM leukemia | µM | 18.9 |
| O=C1C=C(Nc2ccccc2C(=O)CC(=O)C(=O)Nc2ccc(Cl)cc2)c2ccccc2C1=O | CCRF-CEM leukemia | µM | 33.1 |
| Cc1c(Cc2ccccc2)n(C(C)OCCN(OC(=O)Oc2ccccc2)C(=O)Oc2ccccc2)c(=O)[nH]c1=O (centres undefined) | CCRF-CEM leukemia | µM | 50 |
| CN1CCN(C(=O)[C@@]2(C)CC[C@]3(C)CC[C@]4(C)C(=CC[C@@H]5[C@@]6(C)CCC(=O)NC(C)(C)[C@@H]6CC[C@]54C)[C@@H]3C2)CC1 | CCRF-CEM leukemia | µM | 4.43 |
| Clc1cc(-c2ccccc2)nc(Nc2nc3ccccc3[nH]2)n1 | CCRF-CEM leukemia | µM | 27.6 |
| O=C1Nc2ccccc2/C1=C\c1c(-c2ccccc2)nc2sccn12 | CCRF-CEM leukemia | µM | 19.8 |
| O=C1/C(=C/c2ccc([N+](=O)[O-])s2)Oc2cc(Cl)ccc21 | CCRF-CEM leukemia | µM | 1.48 |
| CC(C)=CC1C(C(=O)Oc2ccccc2C(C)C)C1(C)C (centres undefined) | CCRF-CEM leukemia | µM | 59.6 |

Let us move to another entry and its TGI.
// returns TGI for CN1CCN(Cc2ccc(NC(=O)c3cncc(C#Cc4c(N)ncc5ccc(C#N)cc45)c3)cc2C(F)(F)F)CC1 with CCRF-CEM leukemia; value = 3.08

* * *

Test system: K-562 leukemia
assay_protocol: NCI tumour cell line growth inhibition, 48 h; in the data active = GI50 below about 0.43 µM; inactive = the rest
Return exactly one item of active, inactive

# example entries with known answers
| compound_string | target_or_system | assigned_class |
| --- | --- | --- |
| COc1cc(OC)cc(Oc2cnc3cc(N)cc(N)c3n2)c1 | K-562 leukemia | inactive |
| O=C(CCCn1c2c(sc3ccccc32)c(=O)n2nnc(-c3ccccc3)c12)NCCc1cnc[nH]1 | K-562 leukemia | active |
| COc1ccc(-c2cc(/C=C3\C(=O)Nc4cc(Cl)ccc43)[nH]n2)cc1 | K-562 leukemia | inactive |
| Oc1cc(N2CC2)c(O)cc1N1CC1 | K-562 leukemia | inactive |
| CNC(=O)c1nn(C)c2c1C(C)(C)Cc1cnc(Nc3cccc(N4CCN(C)CC4)c3)nc1-2 | K-562 leukemia | inactive |

Please indicate how the test categorized COC(=O)c1cc(NC(=O)c2cc(NC(=O)c3cc([N+](=O)[O-])n(C)c3)cn2C)cn1C . inactive

Please indicate how the test categorized O=C1C(=c2ccc(=C3C(=O)c4ccc([N+](=O)[O-])cc4[N+]3=O)cc2)N([O-])c2cc([N+](=O)[O-])ccc21 . inactive

Please indicate how the test categorized O=C1/C(=C/c2ccc([N+](=O)[O-])s2)Oc2cc(Cl)ccc21 . active

Please indicate how the test categorized COC(=O)c1ccc2nc(-c3cc4ccccc4n3C)n(CCCCOc3cc4c(cc3OC)C(=O)N3CCC[C@H]3C=N4)c2c1 . active

Please indicate how the test categorized NC(=O)c1cccc2c(N[C@H](CN3CCC3)c3ccc(Cl)c(C(F)(F)F)c3)ncnc12 . inactive

Please indicate how the test categorized N#Cc1c(NCc2ccccc2)nc(NCc2ccccc2)c(C#N)c1-c1ccc(Cl)cc1 . inactive

Please indicate how the test categorized Cc1ccccc1C1=C(c2cn(C)c3ccccc23)C(=O)NC1=O . inactive

Please indicate how the test categorized CN(C)C1CCN(Cc2ccc(NC(=O)c3cncc(C#Cc4cnc(N)c5ncccc45)c3)cc2C(F)(F)F)CC1 . active

Please indicate how the test categorized COc1cc2c3c(n(CCCN4CCNCC4)c(=O)c2cc1OC)-c1cc2c(cc1C3=O)OCO2 . active

Please indicate how the test categorized O=[N+]([O-])c1ccc(/C=C/c2nc3ccc(Cl)cc3[nH]2)cc1 . inactive

* * *

Tested on: XF 498 CNS
assay_protocol: NCI tumour cell line growth inhibition, 48 h
measured_parameter: TGI (µM)
Could you give me the number in µM? Just the number is fine.

Look over these answered cases.
| molecule | TGI, µM |
| --- | --- |
| O=C(NC(=Nc1ccccc1)SCSC(=Nc1ccccc1)NC(=O)c1ccco1)c1ccco1 | 66.1 |
| CCC12CCCN(Cc3ccccc3)C1c1c(n(C)c3ccccc13)C(CO)C2 (centres undefined) | 79.7 |

Let us move to another entry and its TGI.
Entry CCc1cc(C)cc2[n+]1CC=C2 — recorded TGI = 20.4
